Overview of recorded EC50 for various molecules
Target: human CB1 receptors (Homo sapiens, UniProt P21554)
Sequence (P21554 whole entry): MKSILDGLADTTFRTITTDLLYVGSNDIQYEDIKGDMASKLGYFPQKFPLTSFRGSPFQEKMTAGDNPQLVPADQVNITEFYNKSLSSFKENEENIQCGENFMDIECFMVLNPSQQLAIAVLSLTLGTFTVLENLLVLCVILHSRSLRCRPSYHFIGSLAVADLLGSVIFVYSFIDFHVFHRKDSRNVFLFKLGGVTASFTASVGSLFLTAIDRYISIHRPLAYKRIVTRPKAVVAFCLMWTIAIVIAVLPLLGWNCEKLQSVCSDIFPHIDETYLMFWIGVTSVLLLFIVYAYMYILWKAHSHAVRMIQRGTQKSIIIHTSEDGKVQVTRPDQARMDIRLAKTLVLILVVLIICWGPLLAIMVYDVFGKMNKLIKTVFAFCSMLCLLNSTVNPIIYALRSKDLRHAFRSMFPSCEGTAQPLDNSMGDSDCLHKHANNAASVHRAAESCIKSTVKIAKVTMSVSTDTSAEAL
Experiment: functional cAMP assay, CHO cells expressing human CB1

molecule	EC50
Cc1nc([C@@](C)(CC2CC2)NC(=O)c2ccc(C3CC3)c(OCC(F)(F)F)c2)no1 [Example 25]	> 10 µM
Cc1nc([C@@](C)(CC2CC2)NC(=O)c2ccc(C3CC3)c(OCC(F)F)c2)no1 [Example 31]	> 10 µM
Cc1nc([C@](C)(CS(C)(=O)=O)NC(=O)c2ccc(C3CC3)c(OCC(F)(F)F)c2)no1 [Example 28]	> 10 µM

Would you kindly look at the next entry?
// lookup EC50 for Cc1nc([C@@](C)(CC2CC2)NC(=O)c2ccc(C3CC3)c(N3CCC(F)(F)C3)c2)no1 [Example 63] 0.872 µM

---

Entries annotated with measured pEC50
Molecular target: human CB1 receptors (Homo sapiens, UniProt P21554)
Assay: functional cAMP assay, CHO cells expressing human CB1
pEC50: −log10 of the molar value.

Look over these answered cases.
entry-smiles	readout-kind	value-measured
NC(=O)CC1(NC(=O)c2ccc(C3CC3)c(OCC(F)(F)F)c2)CS(=O)(=O)C1	pEC50	< 5.00
CNC(=O)[C@@H](NC(=O)c1ccc(C2CC2)c(OCCF)c1)C(C)(C)C	pEC50	5.81
Cc1ccc(C(=O)N[C@@H](CC(C)C)C(N)=O)cc1OCC1CC1	pEC50	< 5.00
NC(=O)[C@@H]1CC(F)(F)CN1C(=O)c1ccc(C2CC2)c(OCCF)c1	pEC50	< 5.00

Now take the following molecule into account.
So what's the measured pEC50 for this one? NC(=O)CC1(NC(=O)c2ccc(C3CC3)c(OCC3CC3)c2)COC1 < 5.00

---

Molecular target: human CB1 receptors (Homo sapiens, UniProt P21554)
Assay: functional cAMP assay, CHO cells expressing human CB1
Examples of molecules with documented EC50 follow.
Report the figure in nM without appending any unit label.

molecule	system-tested	EC50 [nM]
C[C@](CC(N)=O)(NC(=O)c1ccc(C2CC2)c(N2CCC(F)(F)C2)c1)C1CC1 [Example 61]	human CB1 receptors (Homo sapiens, UniProt P21554)	1790

# evaluate next
Endpoint output: EC50 of CNC(=O)[C@@H](NC(=O)c1ccc(C2CC2)c(N2CCC(F)(F)C2)c1)C(C)(C)C [Example 66] . Value? 42.1

---

Property: EC50; scope: individual compounds
Molecular target: human CB2 receptors (Homo sapiens)
Construct: expressed in transfected cells; host or cells: CHO cells
Test: functional cAMP assay, CHO cells expressing human CB2
Format: cell-based
Express your answer in nM, writing the number without its unit.

entry-smiles	EC50 (nM)
Cc1nc([C@](C)(CC2CC2)NC(=O)c2ccc(C3CC3)c(OCCF)c2)no1	57

Any idea what its EC50 is? The compound is C[C@](CC(N)=O)(NC(=O)c1ccc(C2CC2)c(N2CCC(F)(F)C2)c1)C1CC1 2.5

Same thing, different compound: CC(C)Oc1cc(C(=O)N[C@@](C)(CC(N)=O)C2CC2)ccc1C1CC1 30.8

Would you mind doing CNC(=O)[C@@H](NC(=O)c1ccc(C2CC2)c(-c2ccc(F)nc2)c1)C(C)(C)C as well? 11.8

---

Biological target: human CB2 receptors (Homo sapiens, UniProt P34972)
Construct: expressed in transfected cells; host or cells: CHO cells
Sequence (P34972 whole entry): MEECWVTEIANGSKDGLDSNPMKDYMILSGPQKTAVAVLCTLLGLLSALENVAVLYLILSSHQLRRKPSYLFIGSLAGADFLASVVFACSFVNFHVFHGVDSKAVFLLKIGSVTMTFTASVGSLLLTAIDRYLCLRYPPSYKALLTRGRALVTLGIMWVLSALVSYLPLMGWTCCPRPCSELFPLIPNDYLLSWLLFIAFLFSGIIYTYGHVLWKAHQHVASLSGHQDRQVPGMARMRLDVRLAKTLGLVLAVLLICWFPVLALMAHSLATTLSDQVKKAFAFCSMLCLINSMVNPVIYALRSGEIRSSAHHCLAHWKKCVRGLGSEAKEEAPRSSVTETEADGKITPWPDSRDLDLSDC
Assay: functional cAMP assay, CHO cells expressing human CB2
Assay type: cell-based
pEC50: −log10 of the molar value.
Mark not satisfied for pEC50 values under 8, and satisfied for everything at or above.

compound	assigned-class
Cc1nc([C@@](C)(CC2CC2)NC(=O)c2ccc(C3CC3)c(N3CCC(F)(F)C3)c2)no1	satisfied
CC(C)(C)c1noc(-c2ccc(C3CC3)c(N3CCC(F)(F)C3)c2)n1	satisfied
Cc1nc([C@](C)(CC2CC2)NC(=O)c2ccc(C3CC3)c(N3CCC(F)(F)C3)c2)no1	satisfied
Cc1nc([C@@](C)(CC2CC2)NC(=O)c2ccc(C3CC3)c(OC(C)C)c2)no1	not satisfied

Check the entry CNC(=O)[C@H](CC(C)C)NC(=O)c1ccc(N2CC(F)(F)C2)c(OCC2CC2)c1 : does pEC50 equal or exceed 8? not satisfied

Cool, now CC(C)C[C@H](NC(=O)c1ccc(C2CC2)c(OCC2CC2)c1)C(N)=O not satisfied

Now consider Cc1nc([C@@](C)(CS(C)(=O)=O)NC(=O)c2ccc(C3CC3)c(OCC3CC3)c2)no1 . not satisfied

CNC(=O)[C@H](CC(C)C)NC(=O)c1ccc(C2CC2)c(OCC2CC2)c1 , same question. not satisfied

Further, for Cc1nc([C@](C)(CC2CC2)NC(=O)c2ccc(C3CC3)c(-c3ccc(F)nc3)c2)no1 ? not satisfied

Here is the next compound: Cc1nc([C@@](C)(CC2CC2)NC(=O)c2ccc(C3CC3)c(-c3ccc(F)nc3)c2)no1 not satisfied

What do you have for Cc1nc([C@](C)(CS(C)(=O)=O)NC(=O)c2ccc(C3CC3)c(OCC3CC3)c2)no1 ? not satisfied

Same question, C[C@@](CC(N)=O)(NC(=O)c1ccc(C2CC2)c(OCC(F)(F)F)c1)C1CC1 [Example 51] this time not satisfied
